Each entry below carries its recorded per cent of control.
System: PRKAA1 or PRKAA2 (rat)
Details: compound 10.0 µM; accession and sequence are those of the human protein
Provide the reading as a plain figure in %.

These solved cases illustrate the format of a correct answer.
Need per cent of control, item CC(C)n1nc(-c2cc3cc(O)ccc3[nH]2)c2c(N)ncnc21
28

Need per cent of control, item COc1ccc(-c2ccc3c(N4CCOCC4)nc(N4C[C@@H](C)O[C@@H](C)C4)nc3n2)cc1CO
106

Need per cent of control, item COC(=O)Nc1ccc(-c2nc(N3CCOCC3)c3cnn(C4CCN(C(=O)OC)CC4)c3n2)cc1
82

// next entry
Need per cent of control, item CCC(=O)N1CCN(c2ccc(-n3c(=O)ccc4cnc5ccc(-c6cnc7ccccc7c6)cc5c43)cc2C(F)(F)F)CC1
93
